Origin of values: ChEMBL document CHEMBL1201862

Test system: SN12C
Assay: NCI tumour cell line growth inhibition, 48 h
Calls of active or inactive are those of the source. Cut-off read from the data, not from the text of the source: active = GI50 up to about 1.1 µM and inactive = higher.
Your reply should match one of these outcome classes. YES = active, NO = inactive

Name the outcome recorded for C[C@]12OC[C@H](c3ccccc3)N1C(=O)C1[C@H]2CC12SCCS2 (stereo partly specified) in the assay.
NO

Outcome? Nc1nc(Cl)nc2c1ncn2C1CC(O)C(CO)O1 (stereo unspecified)
YES

What call does the record list for Nc1nc2cc3nc(N)c(N)nc3cc2nc1N ?
NO

What was the test verdict on N#Cc1c(-c2ccccc2)cc(Nc2ccc(Cl)cc2)n2c1nc1ccccc12 ?
NO

Call for entry N#CCCN(c1ccc(/C=C2\N=C(c3ccc(Cl)cc3)OC2=O)cc1)S(=O)(=O)c1ccccc1 :
NO

Please indicate how the test categorized CC1(C)C2CCC3(C2)CS(=O)(=O)N2OC231 (stereo unspecified) .
NO

What outcome does the record of this test show for CCOC(=O)/C(Cl)=C(\C)Nc1nc2c(ccc3ccccc32)s1 ?
NO

For CC(C)(C)NC(=O)/C(=C\Sc1ccccc1)c1ccccc1 , what call appears in the results of this test?
NO

Please indicate how the test categorized Cc1ccc(S(=O)(=O)NNC(=S)Nc2cccc3ccccc23)cc1 .
NO

Outcome? Cc1cnc2[nH]c(-c3cccc(F)c3)cc(=O)c2c1
YES

Assay result, entry N=C(N)SCCSC(=N)N — outcome?
NO

----------
Tested on: KM12
Experiment: NCI tumour cell line growth inhibition, 48 h
The source made the active and inactive calls. Rule as the data show it: active = GI50 up to about 1.1 µM and inactive = higher.
Hi there, I'd appreciate the recorded GI50 for every entry that follows.

Look up GI50 for this compound: O=C(CCNC(=O)OCc1ccccc1)OCCCNC(=O)OCc1ccccc1
> 100 µM (inactive)

If you can, please state the reported GI50 value of CN(C)c1ccc(/C=c2/c3ccccc3n3c2cc(NC(=O)NCCC[N+](C)(C)C)[n+]3C)cc1 .
> 100 µM (inactive)

Suppose we examine the compound CCOC(=O)C(NC(=O)CC)(N1CCN(c2cc3c(cc2F)c(=O)c(C(=O)O)cn3C2CC2)CC1)C(F)(F)F (stereo unspecified) ; what GI50 value has been reported?
> 100 µM (inactive)

Field request: GI50 | item: NC1CC(=O)c2c(I)sc(I)c21 (stereo unspecified)
15.4 µM (inactive)

Quick check: GI50 of CC1=CC2C(O1)C1C(=O)C=CC(=O)C1=CC2[N+](=O)[O-] (stereo unspecified) ?
24.3 µM (inactive)

What does the data say about its GI50? Entry: CCOC(=O)C(NC(=O)c1ccco1)(Nc1nc2ccc(OCC)cc2s1)C(F)(F)F (stereo unspecified)
21.8 µM (inactive)

Please give the measured GI50 for this compound: CC1C=C(OC(=O)c2ccccc2)C(=O)C(n2cc(F)c(=O)[nH]c2=O)O1 (stereo unspecified)
46 µM (inactive)

State the recorded GI50 for this entry: O=C1NC(=S)N(c2ccccc2)C1=O
> 100 µM (inactive)

Entry CCCCCC[C@@H]1CCC2C(CO)[C@@H](O)CC[C@@H]2C1 (stereo partly specified) has what GI50?
18.7 µM (inactive)

Which GI50 is reported for this compound? CCCCCCCCCCCCSC(=S)c1c(C)[nH]n(CCCCCCCCCCCC)c1=O
> 100 µM (inactive)

Returns the measured GI50 for the input compound. Input: c1ccc2c(c1)Cc1c(Cc3csc4ccccc34)ccc3cccc-2c13
> 100 µM (inactive)
